# experimental target: 4H_GCN4
# Sequence (chain, as listed by the source): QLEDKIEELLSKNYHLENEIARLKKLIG
# assay comment: two-hybrid library CCmax;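 also: natural log of median RNA to DNA barcode read ratio; higher means stronger binding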
# test parameters: mean of both orientations
# key: entry, value: interaction score

binder: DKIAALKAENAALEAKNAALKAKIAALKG [4H2750-AA]
interaction score: -1.33
//
binder: DEIAALEAKNAALKAKNAALKAKIAALKG [4H510-AA]
interaction score: -2.32
//
binder: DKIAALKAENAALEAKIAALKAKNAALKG [4H2736-AA]
interaction score: -2.46
//
binder: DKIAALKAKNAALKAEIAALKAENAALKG [4H3020-AA]
interaction score: -0.937
//
binder: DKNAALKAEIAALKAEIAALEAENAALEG [4H3651-AA]
interaction score: -1.81
//
binder: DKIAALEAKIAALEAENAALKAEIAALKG [4H2330-AA]
interaction score: -1.88
//
binder: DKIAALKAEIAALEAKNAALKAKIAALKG [4H2622-AA]
interaction score: 0.309
//
binder: DKNAALKAEIAALKAKNAALKAEIAALEG [4H3705-AA]
interaction score: -1.4
//
binder: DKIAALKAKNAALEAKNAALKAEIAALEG [4H3001-AA]
interaction score: -2.43
//
binder: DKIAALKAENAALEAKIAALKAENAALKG [4H2732-AA]
interaction score: -1.08
//
binder: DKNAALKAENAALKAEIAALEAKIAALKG [4H3782-AA]
interaction score: -2.54
//
binder: DKNAALEAKIAALKAKIAALKAKIAALKG [4H3438-AA]
interaction score: -1.68
//
binder: DKNAALEAEIAALEAEIAALEAEIAALEG [4H3073-AA]
interaction score: -0.626
//
binder: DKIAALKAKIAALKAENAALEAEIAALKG [4H2898-AA]
interaction score: -0.672
